ASSAY_NOTES: chemical genetic growth profiling, strain panel (AID 1159580);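 note: tested at 20 µM; growth read once vehicle control cultures reached saturation at 30 °C; 1 = growth at the plate median or of vehicle wells; lower values mean less growth of the strain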
CONDITION_CONTEXT: S. cerevisiae deletion strains, growth OD, locus YAL013W, strain DEP1, hits give low values
About 2,000 (36%) of roughly 5,500 compounds were called active. Another 18% or so got no clear call; they are omitted. The list shows a part of the results.
PROPERTY_NAME: normalized growth
Give bare numbers.

Worked cases, normalized growth given:
COMPOUND	PROPERTY_NAME	TEST_RESULT
O=C(O)C1c2ccccc2Oc2ccccc21	normalized growth	0.999
C[N+](C)(C)CCOP(=O)([O-])OP(=O)(O)OC[C@H]1OC(n2ccc(N)nc2=O)[C@H](O)[C@@H]1O (some centres not stated)	normalized growth	0.99
O=C(O)COCC(=O)N1CCc2c([nH]c3ccccc23)C1C(F)(F)F (configuration not stated)	normalized growth	1.01
COC(=O)[C@@H]1C(O)CC[C@H]2CN3CCc4c([nH]c5ccccc45)[C@@H]3C[C@@H]21 (some centres not stated)	normalized growth	0.998

Hey, can you go through the list below and give me normalized growth for every item?
1. Cc1c(N(C)C)c(=O)n(-c2ccccc2)n1C
2. CC(C)CC1C(=O)N2CCC[C@H]2C2(O)O[C@](NC(=O)C3C=C4c5cccc6[nH]c(Br)c(c56)C[C@H]4N(C)C3)(C(C)C)C(=O)N12 (some centres not stated)
3. COC(=O)C1[C@H]2C[C@H]3c4[nH]c5ccccc5c4CCN3C[C@@H]2CC[C@@H]1O (some centres not stated)

Result:
[0.994, 0.989, 1.02]

Where do these numbers come from? They come from PubChem BioAssay AID1159580.
